// provenance: patent EP0280167A2

Each entry below carries its reported logD.
- testMethodNotes: physchem
- Type: physicochemical
- conditionSummary: octanol/tris buffer, pH 7, statement in text; room temperature (20°C) in b7; read-out: Oktanol-Wasser Verteilungskoeffizient P (converted)

Answered examples (3):
{"compound": "COc1cccc2c1C(=O)c1c(O)c3c(c(O)c1C2=O)C[C@@](O)(C(C)=O)C[C@@H]3O[C@H]1C[C@H](N)[C@H](O)[C@H](C)O1", "reported": "< 1"}
{"compound": "COc1cccc2c1C(=O)c1c(O)c3c(c(O)c1C2=O)C[C@@](O)(C(=O)CO)C[C@@H]3O[C@H]1C[C@H](N)[C@H](O)[C@H](C)O1", "reported": "< 1"}
{"compound": "COc1cccc2c1C(=O)c1c(O)c3c(c(O)c1C2=O)C[C@@](O)(C(=O)CO)C[C@@H]3O[C@H]1C[C@H](N)[C@@H](O)[C@H](C)O1 [Epirubicin]", "reported": "< 1"}

Next up:
Req: Recall and state the measured logD for CC[C@@]1(O)C[C@H](O[C@H]2C[C@H](N(C)C)[C@H](O[C@H]3C[C@H](O)[C@H](O[C@H]4CCC(=O)[C@H](C)O4)[C@H](C)O3)[C@H](C)O2)c2c(cc3c(c2O)C(=O)c2c(O)cccc2C3=O)[C@H]1C(=O)OC .
Resp: ~2.3

###

Each entry below carries its reported logD.
- testMethodNotes: physchem
- Type: physicochemical
- conditionSummary: octanol/tris buffer, pH 7, octanol / Tris buffer pH 7, room temperature; * means greater than; read-out: P (converted)
- Experimental: Bestimmung des Oktanol-Wasser-Verteilungskoeffizienten P Zu 1 ml einer 2-10 µmol/l Lösung der Anthracycline in oktanol-gesättigtem Tris-Puffer, pH 7, wurde 1 ml puffer-gesättigtes Oktanol gegeben und für etwa 1 h bei Raumtemperatur geschüttelt. Die wässrige Phase wurde anschliessend entnommen und die Substanzkonzentration in einem Fluoreszenzphotometer durch Vergleich mit Proben bekannter Konzentration bestimmt. […]
Would you mind answering with just the numeric figure?

{"molecule": "CC[C@@]1(O)C[C@H](O[C@H]2C[C@H](N(C)C)[C@H](O[C@H]3C[C@H](O)[C@H](O[C@H]4CCC(=O)[C@H](C)O4)[C@H](C)O3)[C@H](C)O2)c2c(cc3c(c2O)C(=O)c2c(O)cccc2C3=O)[C@H]1C(=O)OC [ACM, Aclacinomycin]", "logD": 2.28}

Next up:
Req: Recall and state the measured logD for COc1cccc2c1C(=O)c1c(O)c3c(c(O)c1C2=O)C[C@@](O)(C(C)=O)C[C@@H]3O[C@H]1C[C@H](N)[C@H](O)[C@H](C)O1 [Daunomycin] .
Resp: 0.653
